Origin of values: ChEMBL document CHEMBL1134838

# target under test: Sodium-dependent serotonin transporter (Rattus norvegicus)
# Sequence (P31652 whole entry): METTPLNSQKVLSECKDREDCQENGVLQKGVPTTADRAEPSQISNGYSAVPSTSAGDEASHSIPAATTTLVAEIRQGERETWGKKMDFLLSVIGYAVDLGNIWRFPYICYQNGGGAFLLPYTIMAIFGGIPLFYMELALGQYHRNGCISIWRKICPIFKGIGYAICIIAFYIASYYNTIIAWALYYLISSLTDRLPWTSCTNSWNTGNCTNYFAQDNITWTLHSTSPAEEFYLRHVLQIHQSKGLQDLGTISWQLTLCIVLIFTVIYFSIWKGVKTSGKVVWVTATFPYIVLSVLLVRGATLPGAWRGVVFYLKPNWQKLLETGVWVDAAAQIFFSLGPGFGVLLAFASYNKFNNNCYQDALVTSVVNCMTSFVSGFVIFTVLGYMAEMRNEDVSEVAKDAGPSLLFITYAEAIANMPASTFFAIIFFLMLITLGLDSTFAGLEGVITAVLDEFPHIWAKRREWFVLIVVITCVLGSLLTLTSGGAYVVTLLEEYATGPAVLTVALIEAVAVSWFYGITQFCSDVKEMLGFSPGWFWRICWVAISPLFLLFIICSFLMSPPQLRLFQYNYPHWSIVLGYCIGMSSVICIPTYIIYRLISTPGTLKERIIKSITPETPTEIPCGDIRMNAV
# 1 (yes) = Ki below 2000 nM (exclusive); 0 (no) = Ki at/above 2000 nM

A selection of reference data follows.
>  <compound>
CCCCc1cccc(N2[C@@H]3CC[C@H]2C[C@H](OC(c2ccc(Cl)cc2)c2ccc(Cl)cc2)C3)c1

>  <discrete label>
1 (yes)

$$$$
>  <compound>
CCCCc1cccc(N2[C@@H]3CC[C@H]2C[C@H](OC(c2ccccc2)c2ccc(Cl)cc2)C3)c1 (some centres undefined)

>  <discrete label>
1 (yes)

$$$$
>  <compound>
Clc1ccc(C(OC2CC3CCC(C2)N3Cc2ccccc2)c2ccc(Cl)cc2)cc1 (centres undefined)

>  <discrete label>
0 (no)

$$$$
>  <compound>
CN1C2CCC1CC(OC(c1ccccc1)c1ccc(Cl)cc1)C2 (centres undefined)

>  <discrete label>
0 (no)

$$$$

Dear reviewer, please state whether Clc1ccc(C(OC2CC3CCC(C2)N3Cc2ccccc2)c2ccccc2)cc1 (centres undefined) has Ki strictly beneath 2000 nM.
0 (no)

In the record for C=CCN1C2CCC1CC(OC(c1ccccc1)c1ccc(Cl)cc1)C2 (centres undefined) , is Ki less than 2000 nM?
0 (no)

Is the reported Ki for Clc1ccc(C(OC2CC3CCC(C2)N3)c2ccc(Cl)cc2)cc1 (centres undefined) strictly below 2000 nM?
1 (yes)

Would you kindly verify if Ki of CCCc1cccc(N2[C@H]3CC[C@]2(C)C[C@@H](OC(c2ccccc2)c2ccc(Cl)cc2)C3)c1 (some centres undefined) is strictly less than 2000 nM?
1 (yes)

Ki under 2000 nM? Item: Clc1ccc(C(OC2CC3CCC(C2)N3)c2ccccc2)cc1 (centres undefined)
1 (yes)
